Test system: DAF-12 nuclear receptor (Haemonchus contortus)
measurement description: hcDAF-12 driven luciferase reporter activation – cell-based, luminescence, HEK293, lit1-tk-luc reporter, primary screen (AID 652067);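 note: 100% = response to 3 µM Δ7-dafachronic acid high control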
condition notes: HEK293 hcDAF-12 lit1-tk-luc reporter, at 6.8 µM, hits give high values, 0% DMSO, 100% Δ7-dafachronic acid
About 5,400 (1.5%) of roughly 370,000 compounds were called active. Only a selection was taken, and actives are over-represented in it overall.
Reported activation values follow for various compounds
observation type: activation (%)

compound: CC(Sc1nnc(CNC(=O)c2ccccc2F)n1C)C(=O)Nc1nccs1 (stereo unspecified)
target under test: DAF-12 nuclear receptor (Haemonchus contortus)
unit symbol: %
measured result: -0.26

compound: C=CCOC/C=C/C#CCN(CC=C)Cc1ccc(OC)cc1OC
target under test: DAF-12 nuclear receptor (Haemonchus contortus)
unit symbol: %
measured result: -3.48

compound: CCOC(=O)c1csc(NC(=O)C2CCCN(S(=O)(=O)c3ccc(Cl)s3)C2)n1 (stereo unspecified)
target under test: DAF-12 nuclear receptor (Haemonchus contortus)
unit symbol: %
measured result: -2.96

compound: COc1ccccc1CCn1cnc(-c2ccccc2)c1C(C)C
target under test: DAF-12 nuclear receptor (Haemonchus contortus)
unit symbol: %
measured result: 0.67

compound: COc1ccc(S(=O)(=O)NCCc2cc3ccc(C)c(C)c3[nH]c2=O)cc1
target under test: DAF-12 nuclear receptor (Haemonchus contortus)
unit symbol: %
measured result: -0.62

compound: COc1cccc(CNC(=O)CNS(=O)(=O)c2ccc3nc(C)sc3c2)c1OC
target under test: DAF-12 nuclear receptor (Haemonchus contortus)
unit symbol: %
measured result: -1.15

---

Test system: DAF-12 nuclear receptor (Haemonchus contortus)
measurement description: hcDAF-12 driven luciferase reporter activation – cell-based, luminescence, HEK293, lit1-tk-luc reporter, primary screen (AID 652067);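 note: 100% = response to 3 µM Δ7-dafachronic acid high control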
condition notes: HEK293 hcDAF-12 lit1-tk-luc reporter, at 6.8 µM, hits give high values, 0% DMSO, 100% Δ7-dafachronic acid
Among all 370,000 compounds or so, about 5,400 (1.5%) were called active. This is one part of a sample in which actives are shown more often than they occur.

compound: CCCOc1ccc(Oc2c(Cl)cnn(Cc3cccc4ccccc34)c2=O)cc1
unit symbol: %
activation: 0.08
//
compound: O=C(COC(=O)c1ccco1)Nc1ccc(Cl)cn1
unit symbol: %
activation: 0.13
//
compound: CC(=O)Nc1ccc(C(=O)CSc2nc3ccc(C)cc3[nH]2)cc1
unit symbol: %
activation: 4.98
//
compound: O=C(Nc1ccccc1)O/N=C1\CCCCC1c1ccc([N+](=O)[O-])cc1[N+](=O)[O-] (stereo unspecified)
unit symbol: %
activation: -1.35
//
compound: N#Cc1ccc(OC[C@@H](O)CN2CCC(C(O)(c3ccccc3)c3ccccc3)CC2)c(F)c1
unit symbol: %
activation: 0.25
//
compound: COC(=O)[C@]12C[C@H](CC(=O)NCc3ccccc3)C(=O)N(Cc3ccccc3)C1=C[C@H](COCc1ccccc1)O[C@@H]2C
unit symbol: %
activation: -1.28
//
compound: Cc1ccc2cc(/C=N/Nc3ccc(C(=O)O)cc3)c(Cl)nc2c1
unit symbol: %
activation: 10.2
//
compound: Fc1ccccc1/C=N/Nc1cc(N2CCCCC2)ncn1
unit symbol: %
activation: 5.99
//
compound: Cc1ccc(-n2c(SCC(=O)Nc3cccc4ccccc34)nnc2-c2ccco2)cc1
unit symbol: %
activation: -2.24
//
compound: C=CCN(C)CC#Cc1ccccc1
unit symbol: %
activation: -0.56
//
compound: CCCc1cc(C(=O)Nc2ccc(Cl)cn2)cs1
unit symbol: %
activation: 7.31

---

Test system: DAF-12 nuclear receptor (Haemonchus contortus)
measurement description: hcDAF-12 driven luciferase reporter activation – cell-based, luminescence, HEK293, lit1-tk-luc reporter, primary screen (AID 652067);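 note: 100% = response to 3 µM Δ7-dafachronic acid high control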
condition notes: HEK293 hcDAF-12 lit1-tk-luc reporter, at 6.8 µM, 0% DMSO, 100% Δ7-dafachronic acid
Hit rate of the full screen: of about 370,000 compounds, about 5,400 (1.5%) were called active.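 The calls were made as follows: active = activation above the mean of all tested compounds plus 3 SD (cut at about 5.5% in these data); inactive = the rest.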 The sample holds actives, similar compounds and a random draw of the others, so the mix is not that of the screen.
Outcome codes: active, inactive

compound: CCN(C(=O)[C@@H](C1CC1)[C@@H](O)c1ccc2ccccc2c1)c1ccccc1
target under test: DAF-12 nuclear receptor (Haemonchus contortus)
label: inactive
--
compound: Cc1ccc2[nH]c(C(=O)O)c(NC(=O)c3ccccc3[N+](=O)[O-])c2c1
target under test: DAF-12 nuclear receptor (Haemonchus contortus)
label: inactive
--
compound: COc1cccc(C2c3[nH]c4ccccc4c3CCN2Cc2cccc(C)n2)c1 (configuration not stated)
target under test: DAF-12 nuclear receptor (Haemonchus contortus)
label: inactive
--
compound: COc1ccc2c(c1)N(C)/C(=C1/SC(=S)N(NC(C)=O)C1=O)S2
target under test: DAF-12 nuclear receptor (Haemonchus contortus)
label: inactive
--
compound: c1ccc(Cc2c(-c3ccco3)nc3c4ccccc4ccn23)cc1
target under test: DAF-12 nuclear receptor (Haemonchus contortus)
label: active
--
compound: COC(=O)[C@]12C[C@H](CC(=O)NCc3ccccc3)C(=O)N(CCC3=CCCCC3)C1=C[C@H](C(C)C)O[C@@H]2C1CC1
target under test: DAF-12 nuclear receptor (Haemonchus contortus)
label: inactive
--
compound: COCCNC(=S)N(C)[C@H]1C[C@H]2c3[nH]c4ccccc4c3CCN2C[C@H]1[C@H](C)O
target under test: DAF-12 nuclear receptor (Haemonchus contortus)
label: inactive
--
compound: COc1ccc(CNC(=O)c2ccc3oc(C(C)C)nc3c2)cc1
target under test: DAF-12 nuclear receptor (Haemonchus contortus)
label: active
--
compound: COc1ccccc1C1=Nc2cccc3cccc(c23)N1
target under test: DAF-12 nuclear receptor (Haemonchus contortus)
label: inactive
--
compound: CCOC(=O)c1ccccc1C(=O)N1CCOCCOCCOCC1
target under test: DAF-12 nuclear receptor (Haemonchus contortus)
label: active
--
compound: Cc1c(C=O)c2ccccc2n1CC(=O)O
target under test: DAF-12 nuclear receptor (Haemonchus contortus)
label: active
--
compound: CCOC(=O)[C@]12CCCC=C1N(CCCOC)C(=O)[C@@H]2CC(=O)N1CCOCC1
target under test: DAF-12 nuclear receptor (Haemonchus contortus)
label: inactive
--
compound: CCOc1ccc(C2c3[nH]c4ccccc4c3CCN2Cc2cccn2-c2ncccn2)cc1 (configuration not stated)
target under test: DAF-12 nuclear receptor (Haemonchus contortus)
label: inactive
--
compound: Cc1ccc(Cc2c(-c3ccc(Cl)cc3)nc3c4ccccc4ccn23)cc1
target under test: DAF-12 nuclear receptor (Haemonchus contortus)
label: inactive
--
compound: COc1ccc(OC)c(NC(=O)c2cccc(S(=O)(=O)N3CCN(C(C)=O)CC3)c2)c1
target under test: DAF-12 nuclear receptor (Haemonchus contortus)
label: inactive
--
compound: CC(C)(C)c1ccc(CSc2nnc(-c3cccs3)o2)cc1
target under test: DAF-12 nuclear receptor (Haemonchus contortus)
label: inactive
--
compound: Cc1cc2ncn(CCCCOc3ccccc3)c2cc1C
target under test: DAF-12 nuclear receptor (Haemonchus contortus)
label: inactive
--
compound: CCOc1ccc(C2c3[nH]c4ccccc4c3CCN2Cc2cn(CC)nc2C)cc1 (configuration not stated)
target under test: DAF-12 nuclear receptor (Haemonchus contortus)
label: active
--
compound: CCOc1ccc(NC(=O)C2CCCN(C(=O)Nc3ccccc3)C2)cc1 (configuration not stated)
target under test: DAF-12 nuclear receptor (Haemonchus contortus)
label: inactive
--
compound: Cc1ccc(Cn2cc(COC(=O)N(C)Cc3ccccc3)nn2)cc1
target under test: DAF-12 nuclear receptor (Haemonchus contortus)
label: inactive
--
compound: Cc1ccc(-n2c(COc3ccccc3)nnc2SCC(=O)Nc2ccc3c(c2)OCCO3)cc1
target under test: DAF-12 nuclear receptor (Haemonchus contortus)
label: inactive
--
compound: Cn1c(=NC(=O)c2ccco2)sc2cccc(F)c21
target under test: DAF-12 nuclear receptor (Haemonchus contortus)
label: active
--
compound: CCCS(=O)(=O)Nc1c(C(=O)O)[nH]c2ccccc12
target under test: DAF-12 nuclear receptor (Haemonchus contortus)
label: inactive
--
compound: CCOC(=O)c1ccccc1NC(=O)COC(=O)CCC(=O)N1CCOCC1
target under test: DAF-12 nuclear receptor (Haemonchus contortus)
label: inactive
--
compound: CCOC(=O)c1ccccc1NC(=S)N1CCC(C(N)=O)CC1
target under test: DAF-12 nuclear receptor (Haemonchus contortus)
label: inactive
--
compound: Cc1c(C=O)c2ccccc2n1CCOc1ccccc1
target under test: DAF-12 nuclear receptor (Haemonchus contortus)
label: inactive
--
compound: CCOc1ccc(/C(O)=C2\C(=O)C(=O)N(c3ccc(OC)cc3)C2c2ccccc2[N+](=O)[O-])cc1 (configuration not stated)
target under test: DAF-12 nuclear receptor (Haemonchus contortus)
label: active
--
compound: CSc1ncccc1C(=O)OCC(=O)N1CCOCC1
target under test: DAF-12 nuclear receptor (Haemonchus contortus)
label: inactive
--
compound: COc1ccc(C(=O)NN2C(=O)C3C(c4ccccc4)C=CC(c4ccccc4)C3C2=O)cc1 (configuration not stated)
target under test: DAF-12 nuclear receptor (Haemonchus contortus)
label: inactive
--
compound: O=C(CCS(=O)(=O)c1ccccc1)Nc1ccc(Cl)c(Cl)c1
target under test: DAF-12 nuclear receptor (Haemonchus contortus)
label: inactive
--
compound: COc1ccnc(NC(=S)N2CCN(c3ncc(C(F)(F)F)cc3Cl)CC2)c1
target under test: DAF-12 nuclear receptor (Haemonchus contortus)
label: inactive
--
compound: C/C(=N\N(C)C)c1ccc(OCCOc2ccc([N+](=O)[O-])cc2)cc1
target under test: DAF-12 nuclear receptor (Haemonchus contortus)
label: inactive
--
compound: Cc1cc(NC(=O)c2ccco2)c(=O)n(Cc2c(F)cccc2Cl)c1
target under test: DAF-12 nuclear receptor (Haemonchus contortus)
label: inactive
--
compound: O=C(NN=Cc1ccco1)C(=O)Nc1ccc(Cl)c([N+](=O)[O-])c1
target under test: DAF-12 nuclear receptor (Haemonchus contortus)
label: inactive
--
compound: COc1ccc(/C(O)=C2/C(=O)C(=O)N(c3nc(C)c(C)s3)C2c2ccco2)cc1 (configuration not stated)
target under test: DAF-12 nuclear receptor (Haemonchus contortus)
label: inactive
--
compound: COC(=O)[C@]12C[C@H](CC(=O)NCC34CC5CC(CC(C5)C3)C4)C(=O)N(Cc3ccc(Cl)cc3Cl)C1=C[C@H](COCc1ccccc1)O[C@@H]2C
target under test: DAF-12 nuclear receptor (Haemonchus contortus)
label: inactive
--
compound: CC1CCN(C(=O)c2ncn3c2C(=O)N[C@@H](C)C3)CC1
target under test: DAF-12 nuclear receptor (Haemonchus contortus)
label: inactive
--
compound: N#CC1=C(N)Oc2c(sc3ccccc23)C1c1ccco1 (configuration not stated)
target under test: DAF-12 nuclear receptor (Haemonchus contortus)
label: active
--
compound: CCOC(=O)C(=O)N(Cc1ccccc1)c1ccccc1C(=O)Nc1cc(OC)ccc1OC
target under test: DAF-12 nuclear receptor (Haemonchus contortus)
label: inactive
--
compound: COC(=O)c1ccccc1-n1cc(COC(=O)NCCc2ccccc2)nn1
target under test: DAF-12 nuclear receptor (Haemonchus contortus)
label: inactive
--
compound: Cc1cccc(-n2nc3c(c2NC(=O)c2cc4ccccc4o2)CS(=O)(=O)C3)c1
target under test: DAF-12 nuclear receptor (Haemonchus contortus)
label: inactive
--
compound: CCCc1nc2c3ccccc3ccn2c1Cc1ccccc1C(F)(F)F
target under test: DAF-12 nuclear receptor (Haemonchus contortus)
label: inactive

Sourced from PubChem BioAssay AID652067
